Values from the supplement of paper PMC7600603

system: DLD1 NRF2-WT; assay: drug sensitivity score (DSS) viability (DSS score); higher = more sensitive; extreme values may be limits of the assay; conditions: 72 h; CellTiter-Glo viability
Parameter: drug sensitivity score. Scope: all listed entries.
Keep the answer to the number alone.

Check out these entries, answers already filled in.
CN1CCC(CNc2ccc3ncc(-c4cccc(OC(F)(F)F)c4)n3n2)CC1 [SGI-1776]; 5
CC(=O)Nc1cccc(-n2c(=O)n(C3CC3)c(=O)c3c(Nc4ccc(I)cc4F)n(C)c(=O)c(C)c32)c1 [Trametinib]; 3.1
CO[C@H]1C(=O)[C@]2(C)[C@@H](OC)C[C@H]3OC[C@@]3(OC(C)=O)[C@H]2[C@H](OC(=O)c2ccccc2)[C@]2(O)C[C@H](OC(=O)[C@H](O)[C@@H](NC(=O)OC(C)(C)C)c3ccccc3)C(C)=C1C2(C)C [Cabazitaxel]; 27.1

What value of measured drug sensitivity score is listed for CC1=NN(c2ccc(C(=O)O)cc2)C(=O)C1=Cc1ccc(-c2cc(C)c(C)cc2[N+](=O)[O-])o1 [C646] ? 2.8
